system: LPS-induced TNF production; set-up: species or system C57BL/6 mice; conditions: mouse, iv

{"COMPOUND": "CCCCCC/C=C\\CCCC(=O)O[C@H](CCCCCCC)CC(=O)O[C@@H]1[C@@H](NC(=O)CC(=O)CCCCCCCCCCC)[C@H](OC[C@H]2O[C@H](OP(=O)(O)O)[C@H](NC(=O)CC(=O)CCCCCCCCCCC)[C@@H](OC(=O)C[C@H](O)CCCCCCC)[C@@H]2O)O[C@H](CO)[C@H]1OP(=O)(O)O [Analog B214-33]", "inhibition of TNF production in vivo": "inhibited TNF production"}
{"COMPOUND": "CCCCCC/C=C\\CCCC(=O)O[C@H](CCCCCCC)CC(=O)O[C@@H]1[C@@H](NC(=O)CS(=O)(=O)CCCCCCCCCCC)[C@H](OC[C@H]2O[C@H](OP(=O)(O)O)[C@H](NC(=O)CS(=O)(=O)CCCCCCCCCCC)[C@@H](OC(=O)C[C@H](O)CCCCCCC)[C@@H]2O)O[C@H](CO)[C@H]1OP(=O)(O)O", "inhibition of TNF production in vivo": "inhibited TNF production"}
{"COMPOUND": "CCCCCC/C=C\\CCCC(=O)O[C@H](CCCCCCC)CC(=O)O[C@@H]1[C@@H](NC(=O)/C=C/CCCCCCCCCCC)[C@H](OC[C@H]2O[C@H](OP(=O)(O)O)[C@H](NC(=O)/C=C/CCCCCCCCCCC)[C@@H](OC(=O)C[C@H](O)CCCCCCC)[C@@H]2O)O[C@H](CO)[C@H]1OP(=O)(O)O", "inhibition of TNF production in vivo": "inhibited TNF production"}
